- Tested on: CP269
- testName: qHTS profiling for inhibitors of Plasmodium falciparum proliferation (AID 504749); also: nearly all actives have a fitted effect of over 60% in size
- conditionContext: P. falciparum in erythrocytes, SYBR Green DNA, 72 h; series mostly up to 28.7 µM
Results filed as inconclusive are left out. Calls of active or inactive are those of the source. Calls follow the shape of the dose curve; as a rule, active = well fitted inhibition curve with a large enough effect; inconclusive = small, poorly fitted or top-dose-only effect; inactive = flat fitted curve, though single readings scatter.
The reply should name one outcome from yes = active, no = inactive

Would you please look over these solved cases?
compoundSmiles: CC(=O)NC(=O)c1ccccc1O
classification: no

compoundSmiles: COc1ccc(C(=O)c2ccccc2O)c(O)c1
classification: no

compoundSmiles: COc1ccc(CCN(C)CCCN2CCc3cc(OC)c(OC)cc3CC2=O)cc1OC
classification: no

compoundSmiles: Cc1c(-c2ccccc2)oc2c(C(=O)OCCN3CCCCC3)cccc2c1=O
classification: no

compoundSmiles: CC(C)(C)NC[C@H](O)COc1nsnc1N1CCOCC1
classification: yes

Now take the following molecule into account.
Given NCc1ccccc1Sc1ccccc1CO , state the outcome it received in this test.
no

###

- System: CP194
- testName: qHTS profiling for inhibitors of Plasmodium falciparum proliferation (AID 504749); also: nearly all actives have a fitted effect of over 60% in size
- conditionContext: P. falciparum in erythrocytes, SYBR Green DNA, 72 h; series mostly up to 28.7 µM
Inconclusive results are not listed. The source made the active and inactive calls. Calls follow the shape of the dose curve; as a rule, active = well fitted inhibition curve with a large enough effect; inconclusive = small, poorly fitted or top-dose-only effect; inactive = flat fitted curve, though single readings scatter.
The reply should name one outcome from True = active, False = inactive

compound: CCC(CC)(CC(=O)Nc1cccc(/C=C/c2nc(C3CCC3)cs2)c1)C(=O)O
classification: False
//
compound: CCCN(CCC)S(=O)(=O)c1ccc(C(=O)O)cc1
classification: False
//
compound: CC(=O)N[C@@H](CCC(=O)O)C(=O)O
classification: False
//
compound: O=c1[nH]c(=O)n([C@H]2C[C@H](O)[C@@H](CO)O2)cc1F
classification: False
//
compound: C#C[C@]1(O)CC[C@H]2[C@@H]3CCC4=CC(=O)CC[C@@H]4[C@H]3CC[C@@]21CC
classification: False

Given C/C=C/c1ccc(O)c(OC)c1 , state the outcome it received in this test.
False

Given CC(C)NCC(O)c1ccc2ccccc2c1 (centres undefined) , state the outcome it received in this test.
True

Given OCCOCCN1CCN(C2=Nc3ccccc3Sc3ccccc32)CC1 , state the outcome it received in this test.
False

Given OC[C@H]1O[C@@H]2O[C@H]3[C@H](O)[C@@H](O)[C@@H](O[C@H]4[C@H](O)[C@@H](O)[C@@H](O[C@H]5[C@H](O)[C@@H](O)[C@@H](O[C@H]6[C@H](O)[C@@H](O)[C@@H](O[C@H]7[C@H](O)[C@@H](O)[C@@H](O[C@H]8[C@H](O)[C@@H](O)[C@@H](O[C@H]1[C@H](O)[C@H]2O)O[C@@H]8CO)O[C@@H]7CO)O[C@@H]6CO)O[C@@H]5CO)O[C@@H]4CO)O[C@@H]3CO , state the outcome it received in this test.
False

###

- testName: Cellular Toxicity (caspase-3) Renal Proximal Tubule (AID 667);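 also: cells exposed to compound for 16 hours at 37 °C before detection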
- conditionContext: renal proximal tubule cells, primary cells freshly taken from rat, solvent-only wells 0%, staurosporine 100%; series mostly up to 91.7 µM
Calls of active or inactive are those of the source. Calls follow the shape of the dose curve; as a rule, active = well fitted activation curve with a large enough effect; inconclusive = small, poorly fitted or top-dose-only effect, or effect the other way; inactive = flat fitted curve, though single readings scatter.

compoundSmiles: CCOc1ccc(NC(C)=O)cc1
outcome: inactive

compoundSmiles: COc1ccc(C(=O)c2ccccc2)c(O)c1
outcome: inactive

compoundSmiles: Oc1ccc(Cl)cc1Cc1cc(Cl)ccc1O
outcome: inactive

compoundSmiles: NC(=O)c1ccccc1O
outcome: inactive
